System: PPIs identified as affected by the SH3 domain deletions
Assay: Liquid DHFR-PCA low-throughput validation of PPIs affected by SH3 deletion (Fig. S1D-E)
Format: cell-based, Saccharomyces cerevisiae
Details: bait LSB1; label = prey; liquid DHFR-PCA; prey _1 = lost, _2 = gained in screen
measured-quantity: Ratio (Deletedscore / WTscore)
No unit in the answer, only the number.

// below: answered molecules
YNL229C_1 (protein, UniProt P23202 2-354, looked up) Transcriptional regulator URE2: MNNNGNQVSNLSNALRQVNIGNRNSNTTTDQSNINFEFSTGVNNNNNNNSSSNNNNVQNNNSGRNGSQNNDNENNIKNTLEQHRQQQQAFSDMSHVEYSRITKFFQEQPLEGYTLFSHRSAPNGFKVAIVLSELGFHYNTIFLDFNLGEHRAPEFVSVNPNARVPALIDHGMDNLSIWESGAILLHLVNKYYKETGNPLLWSDDLADQSQINAWLFFQTSGHAPMIGQALHFRYFHSQKIASAVERYTDEVRRVYGVVEMALAERREALVMELDTENAAAYSAGTTPMSQSRFFDYPVWLVGDKLTIADLAFVPWNNVVDRIGINIKIEFPEVYKWTKHMMRRPAVIKALRGE: 1.043
YNL084C_1 (protein, UniProt P39013 1-349, looked up) Actin cytoskeleton-regulatory …: MPKLEQFEIKKYWQIFSGLKPIENKVNHDQVLPILYNSKLDSSVLNKIWFLADIDDDDNLDFEEFVICMRLIFDMVNKNISSVPDELPDWLIPGSKVNLIKERKKRKQIENADLPPKKEIKVDWYMSPDDLNQYEKIYNSCAKLTDGTITFNELSTKLSTKFFNISKTDLNKVWSLINPQNLPSIDRDPTFYFIHCLRQRNDLGAEIPASLPNSLAEVCNKKQLSYDLRSSQPPTKRKEEANEVDNLRDNGQNSSSDSSGSNVLSNEDSIKQKYASLTDDQVANMREQLEGLLNYKKSEKTQGGSKLSKRINIRSITDDLDNIEQQVEVLENYLNNKRHELQALQAEIN: 0.7759

Problem: Requested read-out: Ratio (Deletedscore / WTscore). Entry: YCR009C_1 (protein, UniProt P25343 1-265, looked up) Reduced viability upon …: MSWEGFKKAINRAGHSVIIKNVDKTIDKEYDMEERRYKVLQRAGEALQKEAKGFLDSLRAVTASQTTIAEVISNLYDDSKYVAGGGYNVGNYYLQCVQDFDSETVKQLDGPLRETVLDPITKFSTYFKEIEEAIKKRDHKKQDFDAAKAKVRRLVDKPAKDASKLPRAEKELSLAKDIFENLNNQLKTELPQLVSLRVPYFDPSFEALIKIQLRFCTDGYTRLAQIQQYLDQQSRDDYANGLLDTKIEELLGQMTSLDICALGIK
Solution: 0.9386

Problem: // lookup Ratio (Deletedscore / WTscore) for YGR037C_1 (protein, UniProt P31787 1-87, looked up) Acyl-CoA-binding protein: MVSQLFEEKAKAVNELPTKPSTDELLELYALYKQATVGDNDKEKPGIFNMKDRYKWEAWENLKGKSQEDAEKEYIALVDQLIAKYSS
Solution: 1.041
